test system: EMT-6 mammary tumors; assay: Biodistribution in EMT-6 BALB/C mice; assay type: in vivo; conditions: muscle, 5 min
Label True when % ID per gram muscle is strictly below 2 % ID per gram; at or above that, label False.

Here are 5 compounds together with their reported answers.
| COMPOUND | CLASS_ASSIGNMENT |
| --- | --- |
| COc1cc2c(cc1OC)CN(CCCCNC(=O)c1cc(C)cc(OC)c1O[11CH3])CC2 [[^11C]10] | False |
| COc1cc2c(cc1OC)CN(CCNC(=O)c1cc(C)ccc1O[11CH3])CC2 [[^11C]9] | True |
| COc1cc2c(cc1OC)CN(CCNC(=O)c1cc([125I])ccc1OC)CC2 [[^125I]8i] | True |
| COc1cc2c(cc1OC)CN(CCCCNC(=O)c1cc([76Br])cc(OC)c1OC)CC2 [[^76Br]6] | False |
| COc1cc2c(cc1OC)CN(CCCCNC(=O)c1cc([125I])cc(OC)c1OC)CC2 [[^125I]6i] | False |

Proceed to the following item.
INPUT: Bench note: check whether COc1cc2c(cc1OC)CN(CCCCNC(=O)c1cc(Br)cc(OC)c1O[11CH3])CC2 [[^11C]6] shows % ID per gram muscle below 2 % ID per gram
OUTPUT: True
